Origin of values: the RNAGym collection of RNA variant scans (doi:10.1073/pnas.2313332121)

B1: TPR t1 (parent)
chain: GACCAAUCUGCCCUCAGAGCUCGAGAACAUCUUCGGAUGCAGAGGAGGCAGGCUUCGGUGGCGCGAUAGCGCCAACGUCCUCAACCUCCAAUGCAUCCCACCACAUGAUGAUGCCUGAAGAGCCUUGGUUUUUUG

- Variants of: B1
- assay remarks: polymerase ribozyme fitness, log enrichment relative to wild type (log ratio); higher = more active; in vitro selection for triplet polymerase activity
measurement name: polymerase ribozyme fitness (log ratio)
Provide a numeric answer; units are not to be included.

Briefly, polymerase ribozyme fitness (log ratio) measured for C13U G48A C56A G71A A90G : -4.36

Briefly, polymerase ribozyme fitness (log ratio) measured for U78C A121U : 1.42

Briefly, polymerase ribozyme fitness (log ratio) measured for C40G A90C U106C U116G A119G U125G : -3.17

Briefly, polymerase ribozyme fitness (log ratio) measured for C73U C80A A90U U106A : -5.89

Briefly, polymerase ribozyme fitness (log ratio) measured for A6C G63U : -1.03

Briefly, polymerase ribozyme fitness (log ratio) measured for G57A G63A : -2.04

Briefly, polymerase ribozyme fitness (log ratio) measured for A43U C56A C85G U133A : -4.39

Briefly, polymerase ribozyme fitness (log ratio) measured for G23U C34A G47A C53G G110C U129G : -7.48

Briefly, polymerase ribozyme fitness (log ratio) measured for A41C G51A C114G : -6.23

Briefly, polymerase ribozyme fitness (log ratio) measured for C3A C72U G93U A111G : -3.35

Briefly, polymerase ribozyme fitness (log ratio) measured for A68G C80A : -6.54

Briefly, polymerase ribozyme fitness (log ratio) measured for C49A C124U : 0.812

Briefly, polymerase ribozyme fitness (log ratio) measured for C8G U9G C12A G69A C88G U132A : -4.01

Briefly, polymerase ribozyme fitness (log ratio) measured for C53U C80A U131A : -5.6

Briefly, polymerase ribozyme fitness (log ratio) measured for C115G G120A : -1.35

Briefly, polymerase ribozyme fitness (log ratio) measured for C11A A41U G71U C72U A100U A103G C115A : -6.78

Briefly, polymerase ribozyme fitness (log ratio) measured for G10A A50G : 0.0587

Briefly, polymerase ribozyme fitness (log ratio) measured for A6U C49G G122A : -0.638

Briefly, polymerase ribozyme fitness (log ratio) measured for G45U A50G : -1.25

Briefly, polymerase ribozyme fitness (log ratio) measured for C28A G71C C89G A121U C124A : -5.37

Briefly, polymerase ribozyme fitness (log ratio) measured for G60C C80A : -4.35

Briefly, polymerase ribozyme fitness (log ratio) measured for C8G C20A C82U A100C U112C : -3.16

Briefly, polymerase ribozyme fitness (log ratio) measured for A6U U38A G63C C79U A84G C89U : -3.61

Briefly, polymerase ribozyme fitness (log ratio) measured for A37U C97G U112C : -4.07

Briefly, polymerase ribozyme fitness (log ratio) measured for U54G U132C : -0.456

Briefly, polymerase ribozyme fitness (log ratio) measured for C11G A105U : -2.2

Briefly, polymerase ribozyme fitness (log ratio) measured for C22U G113U : -5.27

Briefly, polymerase ribozyme fitness (log ratio) measured for U54A G69U : -0.707

Briefly, polymerase ribozyme fitness (log ratio) measured for U7C U14C C70U : -2.11

Briefly, polymerase ribozyme fitness (log ratio) measured for G69A C101A U132A : -3.65

Briefly, polymerase ribozyme fitness (log ratio) measured for G52A G63U C114A : -3.58

Briefly, polymerase ribozyme fitness (log ratio) measured for C20U A91U : -2.81

Briefly, polymerase ribozyme fitness (log ratio) measured for U67A C70G C89G C123G : -6.22

Briefly, polymerase ribozyme fitness (log ratio) measured for G45U G51A G52U : -4.66

Briefly, polymerase ribozyme fitness (log ratio) measured for U9A C13G U32A G39C A41U G60C C88U G117A : -7.75

Briefly, polymerase ribozyme fitness (log ratio) measured for A37G C114U U129C : -3.17

Briefly, polymerase ribozyme fitness (log ratio) measured for C3G G120A C124G G128C : 0.839

Briefly, polymerase ribozyme fitness (log ratio) measured for C15U C82G A108G A111G A121C : -6.58

Briefly, polymerase ribozyme fitness (log ratio) measured for C15A A37U : -2.28

Briefly, polymerase ribozyme fitness (log ratio) measured for G61A U106G C114U : -3.24

Briefly, polymerase ribozyme fitness (log ratio) measured for G42U C64U : -1.54

Briefly, polymerase ribozyme fitness (log ratio) measured for C49U C70G C102A A111C U116A G120C : -6.27

Briefly, polymerase ribozyme fitness (log ratio) measured for C12A A41G G63A : -2.29

Briefly, polymerase ribozyme fitness (log ratio) measured for C12G G69U G93U C94G U96A C97U U109A : -5.02

Briefly, polymerase ribozyme fitness (log ratio) measured for C102A C124U : 0.448

Briefly, polymerase ribozyme fitness (log ratio) measured for G52A U106G A111C : -2.25

Briefly, polymerase ribozyme fitness (log ratio) measured for A6C G48U U87C G110U : -2

Briefly, polymerase ribozyme fitness (log ratio) measured for A6U C13U G39C : -0.104

Briefly, polymerase ribozyme fitness (log ratio) measured for C8G C15U C49A G93C : -1.27

Briefly, polymerase ribozyme fitness (log ratio) measured for A43C C114U G122A : -3.24

Briefly, polymerase ribozyme fitness (log ratio) measured for A2C U7A C49U U96A C101A U125G : -3.99

Briefly, polymerase ribozyme fitness (log ratio) measured for G48U U54C G71U U116C G122U : -2.51

Briefly, polymerase ribozyme fitness (log ratio) measured for G36U C49U C64U G113A C115U G128U : -6.05

Briefly, polymerase ribozyme fitness (log ratio) measured for G10C C89G A121C : 0.737

Briefly, polymerase ribozyme fitness (log ratio) measured for A2C C40G : -2.5

Briefly, polymerase ribozyme fitness (log ratio) measured for C4G C80U C89G : -4.61

Briefly, polymerase ribozyme fitness (log ratio) measured for A43G C114G G135U : -3.37

Briefly, polymerase ribozyme fitness (log ratio) measured for C13G A83C A121G : 1.65

Briefly, polymerase ribozyme fitness (log ratio) measured for G35A C88G : -4.5

Briefly, polymerase ribozyme fitness (log ratio) measured for C73A C123A : 1.63

Briefly, polymerase ribozyme fitness (log ratio) measured for C12A G19A A46C C73U G117C : -5.99
